Origin of measurements: the supplement of paper PMC7877785

- experimentDescription: self-splicing fitness, log relative to wild type (ln ratio); higher = more splicing; Tetrahymena group I intron in knt gene, E. coli kanamycin selection, DiMSum; sequences stand for … in CUCUCU…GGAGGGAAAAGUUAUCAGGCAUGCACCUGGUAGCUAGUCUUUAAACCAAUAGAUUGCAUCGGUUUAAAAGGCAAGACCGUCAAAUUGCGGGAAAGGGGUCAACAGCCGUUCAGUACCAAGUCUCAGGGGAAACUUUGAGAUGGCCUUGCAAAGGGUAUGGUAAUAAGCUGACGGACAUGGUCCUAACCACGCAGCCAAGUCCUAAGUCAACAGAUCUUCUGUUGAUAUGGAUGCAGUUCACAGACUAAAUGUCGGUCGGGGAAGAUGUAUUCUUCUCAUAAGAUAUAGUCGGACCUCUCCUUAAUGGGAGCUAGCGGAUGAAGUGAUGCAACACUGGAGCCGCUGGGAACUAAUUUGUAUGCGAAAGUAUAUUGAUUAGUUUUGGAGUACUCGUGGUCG;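 also: selection with 25 µg/mL kanamycin versus none on LB agar overnight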
- conditionSet: 30 °C
Item-by-item account of self-splicing fitness (ln)
Please reply with the value in numeric form only.

Some solved entries appear below for comparison.
GCAAAGCAAUAUUACGUCGU | -2.22
CGCAAGCAAUAUUACGUCCU | -1.2
UUGCAGCAAUAUUACGGGUU | -3.77
CUUAAGCAAUAUUACGAGAG | -4.39
AUCCAGCAAUAUUACGCGAG | -0.838

For GAUAAGCAAUAUUACGGUAA , what is its reported self-splicing fitness (ln)?
-2.64

What would you report for CUACAGCAAUAUUACGGUCC ?
-2.72

What would you report for UCGAAGCAAUAUUACGUGAC ?
-2.44

What would you report for GCAUAGCAAUAUUACGCACA ?
-0.886

What would you report for AUCCAGCAAUAUUACGCCAA ?
-2.78

What would you report for GACGAGCAAUAUUACGAAGG ?
-3.03

---

- experimentDescription: self-splicing fitness, log relative to wild type (ln ratio); higher = more splicing; Tetrahymena group I intron in knt gene, E. coli kanamycin selection, DiMSum; sequences stand for … in CUCUCU…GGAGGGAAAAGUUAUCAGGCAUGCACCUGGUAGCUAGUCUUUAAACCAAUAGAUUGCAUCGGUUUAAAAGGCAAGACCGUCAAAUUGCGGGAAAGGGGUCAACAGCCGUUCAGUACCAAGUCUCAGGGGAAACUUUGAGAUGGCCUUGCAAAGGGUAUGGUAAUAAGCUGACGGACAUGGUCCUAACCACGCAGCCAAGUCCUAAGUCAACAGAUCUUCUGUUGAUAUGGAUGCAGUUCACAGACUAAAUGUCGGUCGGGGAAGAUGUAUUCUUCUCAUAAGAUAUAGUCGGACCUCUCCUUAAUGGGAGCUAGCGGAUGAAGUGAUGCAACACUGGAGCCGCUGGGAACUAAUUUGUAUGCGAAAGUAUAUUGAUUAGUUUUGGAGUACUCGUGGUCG
- conditionSet: 30 °C
Classes are defined on self-splicing fitness (ln) with ranges lower range = under -3, middle range = from -3 up to -2, upper range = -2 and over

Sample answers from the record:
CGCCAGCAAUAUUACGACUA | middle range
UAUGAGCAAUAUUACGACAU | lower range
CAUUAGCAAUAUUACGGUAA | middle range
CUUAAGCAAUAUUACGAGUA | lower range
ACCGAGCAAUAUUACGGACA | upper range

Each sequence maps to one class by self-splicing fitness (ln). Which class for AUUCAGCAAUAUUACGUAUG ?
middle range

What would you report for CAGUAGCAAUAUUACGGGUA ?
lower range

What would you report for GAUUAGCAAUAUUACGCCGC ?
lower range

What would you report for UCACAGCAAUAUUACGGAUA ?
middle range

What would you report for CAGGAGCAAUAUUACGGGAU ?
lower range

What would you report for UACGAGCAAUAUUACGGAUU ?
middle range

What would you report for GACGAGCAAUAUUACGGAAC ?
upper range

What would you report for UCAAAGCAAUAUUACGCAGA ?
lower range

What would you report for UCGUAGCAAUAUUACGUGCC ?
lower range

What would you report for UUGAAGCAAUAUUACGGUAG ?
upper range

What would you report for AAUAAGCAAUAUUACGACCC ?
upper range

What would you report for UGAUAGCAAUAUUACGAGCC ?
lower range

What would you report for UACUAGCAAUAUUACGGAUU ?
middle range

What would you report for CCUAAGCAAUAUUACGGCGC ?
lower range

What would you report for AAUCAGCAAUAUUACGACUG ?
upper range
